// provenance: ChEMBL document CHEMBL1142056

experiment: Bioavailability value in rat after oral dose of 20 mg/k; assay type: ADME, organism-based; details: in vivo, 20 mg/kg, read-out: Bioavailabiility
property measured: bioavailability (%)
Quick note: give the figure in %, leave out the unit.

Q. Would you kindly share the measured bioavailability for CCN(CC)CCN1C(=O)[C@@](O)(c2ccc(Cl)cc2Cl)c2c1cc(C(N)=O)cc2C(F)(F)F ?
A. 28

###

assay: Volume of distribution value intravenously administered to rats with 5 mg/kg; type: ADME, organism-based; design: dose 5 mg/kg, route intravenous; conditions: rat, in vivo, iv
property measured: Vd (L/kg)
Quick note: give the figure in L/kg, leave out the unit.

Q. Would you kindly share the measured Vd for CCN(CC)CCN1C(=O)[C@@](O)(c2ccc(Cl)cc2Cl)c2c1cc(C(N)=O)cc2C(F)(F)F ?
A. 5.4

###

experiment: Half life value intravenously administered to rats with 5 mg/kg; assay type: ADME, organism-based; parameters: dose 5 mg/kg, route intravenous; details: rat, in vivo, iv
property measured: half-life (h)
Quick note: give the figure in h, leave out the unit.

Q. Would you kindly share the measured half-life for CCN(CC)CCN1C(=O)[C@@](O)(c2ccc(Cl)cc2Cl)c2c1cc(C(N)=O)cc2C(F)(F)F ?
A. 1.6

###

Below is a list of entries, each paired with its recorded IC50 value.
target: Growth hormone secretagogue receptor type 1 (Homo sapiens, UniProt Q92847); test: Inhibition of [125I]ghrelin binding to human recombinant ghrelin receptor membrane preparation
Sequence (Q92847 whole entry): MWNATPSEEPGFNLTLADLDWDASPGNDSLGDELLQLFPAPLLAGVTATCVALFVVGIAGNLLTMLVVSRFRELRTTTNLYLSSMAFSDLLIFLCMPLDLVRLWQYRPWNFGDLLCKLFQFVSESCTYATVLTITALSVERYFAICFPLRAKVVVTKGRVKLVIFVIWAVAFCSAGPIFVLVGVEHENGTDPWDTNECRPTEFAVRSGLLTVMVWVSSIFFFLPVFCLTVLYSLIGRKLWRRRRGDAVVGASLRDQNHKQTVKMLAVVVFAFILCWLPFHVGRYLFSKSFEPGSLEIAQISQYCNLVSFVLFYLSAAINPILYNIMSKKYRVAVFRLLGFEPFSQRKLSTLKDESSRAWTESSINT
Quick note: give the figure in nM, leave out the unit.

Here is how some compounds turned out for IC50.
{"columns": ["compound", "property measured", "quantity unit", "endpoint result"],
 "data": [
  ["CCN(CC)CCN1C(=O)[C@@](O)(c2ccccc2OC)c2c1cc(C(N)=O)cc2C(F)(F)F", "IC50", "nM", 160],
  ["CCN(CC)CCN1C(=O)[C@@](O)(c2ccc(Cl)cc2)c2c1cc(C(N)=O)cc2C(F)(F)F", "IC50", "nM", 83],
  ["CCN(CC)CCN1C(=O)[C@@](O)(c2ccc(OC)cc2)c2c1cc(C(N)=O)cc2C(F)(F)F", "IC50", "nM", 106],
  ["CCN(CC)CCN1C(=O)[C@@](O)(c2c(Cl)cccc2Cl)c2c1cc(C(N)=O)cc2C(F)(F)F", "IC50", "nM", 4.2],
  ["CCN(CC)CCN1C(=O)[C@@](O)(c2cc(Cl)ccc2Cl)c2c1cc(C(N)=O)cc2C(F)(F)F", "IC50", "nM", 0.24]
]}

Q. Would you kindly share the measured IC50 for CCN(CC)CCN1C(=O)C(O)(c2ccccc2Cl)c2c1cc(C(N)=O)cc2C(F)(F)F (configuration not stated) ?
A. 4

Q. Then what about the compound CCN(CC)CCN1C(=O)C(O)(c2ccccc2)c2c1cc(C(N)=O)cc2C(F)(F)F (configuration not stated) ?
A. 116

Q. Then what about the compound CCN(CC)CCN1C(=O)[C@@](O)(c2ccccc2Cl)c2c1cc(C(N)=O)cc2C(F)(F)F ?
A. 2.1

Q. Then what about the compound CCN(CC)CCN1C(=O)[C@@](O)(c2ccc(Cl)cc2Cl)c2c1cc(C(N)=O)cc2C(F)(F)F ?
A. 0.02

Q. Then what about the compound CCN(CC)CCN1C(=O)[C@@](O)(c2cccc(OC)c2)c2c1cc(C(N)=O)cc2C(F)(F)F ?
A. 77

Q. Then what about the compound CCN(CC)CCN1C(=O)[C@@](O)(c2cccc(Cl)c2)c2c1cc(C(N)=O)cc2C(F)(F)F ?
A. 15

Q. Then what about the compound CCN(CC)CCN1C(=O)[C@@](O)(c2cccc(Cl)c2Cl)c2c1cc(C(N)=O)cc2C(F)(F)F ?
A. 1.6
